The origin of these recorded values is patent US10975092B2.

# IC50 per entry
# target-desc: recombinant Mst1 (Homo sapiens)
# Sequence (Q13043 whole entry): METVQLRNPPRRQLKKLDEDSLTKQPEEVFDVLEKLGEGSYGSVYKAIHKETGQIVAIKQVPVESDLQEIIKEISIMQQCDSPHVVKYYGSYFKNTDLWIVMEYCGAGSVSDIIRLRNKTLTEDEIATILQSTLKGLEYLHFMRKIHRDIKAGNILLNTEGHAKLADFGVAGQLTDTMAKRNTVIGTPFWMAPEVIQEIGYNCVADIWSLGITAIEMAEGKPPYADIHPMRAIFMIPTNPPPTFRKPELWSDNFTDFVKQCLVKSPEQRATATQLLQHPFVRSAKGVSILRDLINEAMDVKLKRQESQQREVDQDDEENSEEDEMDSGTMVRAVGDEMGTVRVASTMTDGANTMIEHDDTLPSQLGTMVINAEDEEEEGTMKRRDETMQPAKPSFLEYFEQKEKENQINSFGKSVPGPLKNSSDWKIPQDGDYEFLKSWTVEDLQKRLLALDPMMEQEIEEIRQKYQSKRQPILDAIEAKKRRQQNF
# protocol-summary: Inhibition of Mst1 kinase activity, ELISA of Mob1 substrate phosphorylation
# cond: MST1 IC50, recombinant Mst1 11 nM; ATP 6.7 gIVI; GST-Mob1a substrate; 30° C. 15 min
// units = µM; emit number, no label

1) CN1C(=O)c2cccc3c2N(CC3)c2nc(Nc3ccc(S(N)(=O)=O)cc3)ncc21 [IV-3]	0.43
2) CC(C)N1c2ccccc2C(=O)N(C)c2cnc(Nc3ccc(NS(C)(=O)=O)cc3)nc21 [IE-3]	2.72
3) CN1C(=O)c2ccccc2N(C)c2nc(Nc3ccc(S(=O)(=O)Oc4ccccc4)cc3)ncc21 [IC-8]	13.5
4) CN1CCN(S(=O)(=O)c2ccc(Nc3ncc4c(n3)N(C3CCCC3)c3ccccc3C(=O)N4C)cc2)CC1 [IF-4]	6.46
5) CN1CCN(S(=O)(=O)c2ccc(Nc3ncc4c(n3)N(C)c3ccccc3C(=O)N4)cc2)CC1 [IA-2]	2.38
6) CN1C(=O)c2cccc(F)c2N(C)c2nc(Nc3ccc(S(C)(=O)=O)cc3)ncc21 [IH-12]	1.66

Now take the following compound into account.
Fill in IC50 for record CN1C(=O)c2ccc(F)cc2N(C)c2nc(Nc3ccc(S(N)(=O)=O)cc3)ncc21 [IH-7]
3.12
